# subject-of-test: Mu-type opioid receptor (Cavia porcellus) (UniProt P97266)
# Sequence (P97266 whole entry): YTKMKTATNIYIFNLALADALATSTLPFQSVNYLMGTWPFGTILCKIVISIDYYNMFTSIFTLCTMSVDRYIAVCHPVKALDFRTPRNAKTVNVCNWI
# protocol-details: Inhibitory concentration was tested on electrically stimulated guinea pig ileal longitudinal muscle using Morphine as mu opioid receptor agonist at 100 nM of the compound
# Type: functional
Assign Y whenever Ratio does not fall below 2; assign N whenever it does.

Item CCCCCN1CC[C@]23c4c5ccc(O)c4O[C@H]2c2[nH]c4c(c2C[C@@]3(O)[C@H]1C5)C[C@@]1(O)[C@H]2Cc3ccc(O)c5c3[C@@]1(CCN2CC1CC1)[C@H]4O5 with Ratio of 2 or above?
Y

Could you tell me if the measured Ratio of CC(=O)N1CC[C@]23c4c5ccc(O)c4O[C@H]2c2[nH]c4c(c2C[C@@]3(O)[C@H]1C5)C[C@@]1(O)[C@H]2Cc3ccc(O)c5c3[C@@]1(CCN2CC1CC1)[C@H]4O5 reaches 2 or more?
N

* * *

# Test system: Opioid receptors; delta & kappa
# protocol-details: Selectivity ratio of delta opioid receptor to that of kappa opioid receptor
# Type: protein assay
experimental-endpoint: Ratio
The answer should be written as a number, with no unit following it.

Observe how each entry below is paired with its result.
NCCN1CC[C@]23c4c5ccc(O)c4O[C@H]2c2[nH]c4c(c2C[C@@]3(O)[C@H]1C5)C[C@@]1(O)[C@H]2Cc3ccc(O)c5c3[C@@]1(CCN2CC1CC1)[C@H]4O5
41
O=C(NCCN1CC[C@]23c4c5ccc(O)c4O[C@H]2c2[nH]c4c(c2C[C@@]3(O)C1=C5)C[C@@]1(O)[C@H]2Cc3ccc(O)c5c3[C@@]1(CCN2CC1CC1)[C@H]4O5)OCc1ccccc1
325

Consider the additional compound presented here.
Name the reported Ratio value associated with the compound N=C(N)NCCN1CC[C@]23c4c5ccc(O)c4O[C@H]2c2[nH]c4c(c2C[C@@]3(O)[C@H]1C5)C[C@@]1(O)[C@H]2Cc3ccc(O)c5c3C1(CCN2CC1CC1)[C@H]4O5
63

* * *

# subject-of-test: Mu-type opioid receptor (Cavia porcellus)
# Sequence (P97266 whole entry): as above
# protocol-details: The binding affinity against mu-opioid receptor using [3H]- DAMGO as radioligand
experimental-endpoint: pKi
The value called pKi is obtained by taking minus log10 of the concentration in mol/L.

A selection of reference data follows.
NCC(=O)NCC(=O)N1CC[C@]23c4c5ccc(O)c4O[C@H]2c2[nH]c4c(c2C[C@@]3(O)[C@H]1C5)C[C@@]1(O)[C@H]2Cc3ccc(O)c5c3[C@@]1(CCN2CC1CC1)[C@H]4O5
7.18
N=C(N)NCCN1CC[C@]23c4c5ccc(O)c4O[C@H]2c2[nH]c4c(c2C[C@@]3(O)[C@H]1C5)C[C@@]1(O)[C@H]2Cc3ccc(O)c5c3C1(CCN2CC1CC1)[C@H]4O5
7.30
CCCCN1CC[C@]23c4c5ccc(O)c4O[C@H]2c2[nH]c4c(c2C[C@@]3(O)[C@H]1C5)C[C@@]1(O)[C@H]2Cc3ccc(O)c5c3[C@@]1(CCN2CC1CC1)[C@H]4O5
7.14

Continue with the compound presented below.
For the compound shown here, NCCN1CC[C@]23c4c5ccc(O)c4O[C@H]2c2[nH]c4c(c2C[C@@]3(O)[C@H]1C5)C[C@@]1(O)[C@H]2Cc3ccc(O)c5c3[C@@]1(CCN2CC1CC1)[C@H]4O5 , give the reported pKi.
7.34

* * *

# subject-of-test: Kappa-type opioid receptor (Cavia porcellus)
# protocol-details: Inhibitory concentration was tested on electrically stimulated guinea pig ileal longitudinal muscle using ethylketazocine as kappa opioid receptor agonist at 100 nM of the compound
# Type: functional
Decide by Ratio: equal to or exceeding 10 means 1 (yes), less means 0 (no).

Some entries whose results are on file:
CCN1CC[C@]23c4c5ccc(O)c4O[C@H]2c2[nH]c4c(c2C[C@@]3(O)[C@H]1C5)C[C@@]1(O)[C@H]2Cc3ccc(O)c5c3[C@@]1(CCN2CC1CC1)[C@H]4O5
1 (yes)
CC(=O)N1CC[C@]23c4c5ccc(O)c4O[C@H]2c2[nH]c4c(c2C[C@@]3(O)[C@H]1C5)C[C@@]1(O)[C@H]2Cc3ccc(O)c5c3[C@@]1(CCN2CC1CC1)[C@H]4O5
0 (no)
Oc1ccc2c3c1O[C@H]1c4[nH]c5c(c4C[C@@]4(O)[C@@H](C2)NCC[C@]314)C[C@@]1(O)[C@H]2Cc3ccc(O)c4c3[C@@]1(CCN2CC1CC1)[C@H]5O4
1 (yes)
NCC(=O)N1CC[C@]23c4c5ccc(O)c4O[C@H]2c2[nH]c4c(c2C[C@@]3(O)[C@H]1C5)C[C@@]1(O)[C@H]2Cc3ccc(O)c5c3[C@@]1(CCN2CC1CC1)[C@H]4O5
1 (yes)
Oc1ccc2c3c1O[C@H]1c4[nH]c5c(c4C[C@@]4(O)[C@@H](C2)N(CCc2ccccc2)CC[C@]314)C[C@@]1(O)[C@H]2Cc3ccc(O)c4c3[C@@]1(CCN2CC1CC1)[C@H]5O4
1 (yes)

Is the recorded value of Ratio equal to or greater than 10 for this compound? CCCCCN1CC[C@]23c4c5ccc(O)c4O[C@H]2c2[nH]c4c(c2C[C@@]3(O)[C@H]1C5)C[C@@]1(O)[C@H]2Cc3ccc(O)c5c3[C@@]1(CCN2CC1CC1)[C@H]4O5
1 (yes)
